- System: biotinyl-Leu-oxazolone
- Protocol details: self-aminoacylation, catalytic enhancement (BLO) (fold over background); higher = more active; k-Seq, kA / k0A0; sequences stand for … in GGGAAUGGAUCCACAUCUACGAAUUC…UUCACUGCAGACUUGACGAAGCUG
Fewer inactive variants are shown than the library holds.
Recorded metric: self-aminoacylation
Answers are plain numbers.

Look over these answered cases.
Look up self-aminoacylation: AUUAACCUGGUCCUCGAGUGA [Fam2.1 aminoacylation ribozyme variant]
4.42

Try AAGUUUGCUAAAAGUCUCAAG [Fam3.1 aminoacylation ribozyme variant] next.
0.875

Also CCACAUCUCAAGCAAUCGGUC [Fam1B.1 aminoacylation ribozyme variant] ?
1.19

Can you give me self-aminoacylation for all of these, one by one?
1. AUUCACCCAGGUCAUCGGGGG [Fam2.2 aminoacylation ribozyme variant]
2. CCACACUUCGAGCAAUCAGUC [Fam1B.1 aminoacylation ribozyme variant]
3. AUUACCCUUGUCAUUGAGUGA [Fam2.1 aminoacylation ribozyme variant]
4. CCACCCUUAAAGCAAUCGGUC [Fam1B.1 aminoacylation ribozyme variant]
5. CUACUUCAAAAAAUCAGUCUG [Fam1A.1 aminoacylation ribozyme variant]
6. AUUCUCCUAGGUAAUCGGGUG [Fam2.2 aminoacylation ribozyme variant]

1. 2.17
2. 0.52
3. 8.5
4. 1.05
5. 0.804
6. 6.03

Would you be so kind as to report self-aminoacylation for each listed record?
1. AUUGCCCUCGUCAUCGAGUGA [Fam2.1 aminoacylation ribozyme variant]
2. CUAAUUCAAACAAUGGGUCUG [Fam1A.1 aminoacylation ribozyme variant]

1: 3.58; 2: 0.643

Quick check: self-aminoacylation of AUUUACCUAGGUAAUCGGGUG [Fam2.2 aminoacylation ribozyme variant] ?
3.42
